Target: Ba/F3 EGFR-Del19/C797S (Homo sapiens, UniProt P00533, C797S, cells depend on it, form not given)
Sequence (P00533 with tags, fused parts or gaps DEL746-750/C797S, form open): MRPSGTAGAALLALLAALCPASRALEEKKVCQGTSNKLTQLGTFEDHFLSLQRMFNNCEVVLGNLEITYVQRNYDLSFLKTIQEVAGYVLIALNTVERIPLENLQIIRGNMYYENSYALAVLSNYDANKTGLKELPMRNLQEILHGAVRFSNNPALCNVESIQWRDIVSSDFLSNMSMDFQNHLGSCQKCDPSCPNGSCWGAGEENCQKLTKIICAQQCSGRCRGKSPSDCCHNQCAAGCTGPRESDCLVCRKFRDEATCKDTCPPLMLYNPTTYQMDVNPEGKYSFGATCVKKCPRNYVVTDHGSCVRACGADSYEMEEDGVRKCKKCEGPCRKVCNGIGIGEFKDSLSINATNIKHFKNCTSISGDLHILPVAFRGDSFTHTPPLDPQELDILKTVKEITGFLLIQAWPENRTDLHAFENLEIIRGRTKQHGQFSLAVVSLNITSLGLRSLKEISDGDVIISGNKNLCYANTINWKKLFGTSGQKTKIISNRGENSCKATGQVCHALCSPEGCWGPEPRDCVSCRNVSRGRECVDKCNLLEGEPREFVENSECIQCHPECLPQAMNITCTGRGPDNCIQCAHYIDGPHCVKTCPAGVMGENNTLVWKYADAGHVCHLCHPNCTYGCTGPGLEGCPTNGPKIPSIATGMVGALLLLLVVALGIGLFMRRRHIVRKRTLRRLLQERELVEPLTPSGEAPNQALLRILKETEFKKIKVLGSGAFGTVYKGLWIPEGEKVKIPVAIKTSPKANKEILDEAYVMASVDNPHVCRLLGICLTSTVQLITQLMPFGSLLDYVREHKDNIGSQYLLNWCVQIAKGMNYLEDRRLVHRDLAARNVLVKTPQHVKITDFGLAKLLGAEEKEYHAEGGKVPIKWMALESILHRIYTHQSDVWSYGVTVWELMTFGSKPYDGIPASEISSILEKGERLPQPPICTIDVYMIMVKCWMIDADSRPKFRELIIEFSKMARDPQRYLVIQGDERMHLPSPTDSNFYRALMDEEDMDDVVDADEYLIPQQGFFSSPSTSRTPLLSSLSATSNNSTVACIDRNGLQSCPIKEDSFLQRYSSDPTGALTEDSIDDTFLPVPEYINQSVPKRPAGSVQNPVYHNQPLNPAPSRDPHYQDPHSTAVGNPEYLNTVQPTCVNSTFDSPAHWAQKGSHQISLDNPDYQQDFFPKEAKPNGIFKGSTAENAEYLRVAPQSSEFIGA
Assay: Ba/F3 viability assay (CellTiter-Glo), DC
Type: cell-based
Settings: anti-proliferation, read-out: BaF3 DC IC50
OBSERVABLE: GI50

*Q* Which GI50 is reported for this molecule? CN(C)CC1CCCN1c1nn2c3cc(ncc13)Nc1ccnc(n1)-c1cnn(C)c1OCCC2 (stereo not shown) [(11)]
*A* 100 to 1000 nM

*Q* Which GI50 is reported for this molecule? CCn1cc(-c2nn3c4cc(ncc24)Nc2ccnc(n2)-c2cnn(C)c2OCCC3C)cc1CN1CCN(C(C)C)CC1 (stereo not shown) [(80)]
*A* < 10 nM

*Q* Which GI50 is reported for this molecule? Cn1ncc2c1OCCCn1nc(N3CCCC3CO)c3cnc(cc31)Nc1ccnc-2n1 (stereo not shown) [(62)]
*A* 100 to 1000 nM

*Q* Which GI50 is reported for this molecule? CC1CCOc2c(cnn2C)-c2nccc(n2)Nc2cc3c(cn2)c(-c2cc(CN4CCN(C)CC4)cn2C)nn31 (stereo not shown) [(83)]
*A* 10 to 100 nM

Cited source: patent US20230148005A1
